Test system: EKVX NSCLC
METHOD NOTES: NCI tumour cell line growth inhibition, 48 h
QUANTITY KIND: TGI

compound="COc1cc(C(C)c2cc3c(cc2OCCO)OCO3)cc(OC)c1OC (stereo not given)" system="EKVX NSCLC" measured="> 100 µM"
compound="O=CC1CCCc2ccccc21 (stereo not given)" system="EKVX NSCLC" measured="> 100 µM"
compound=O=C1/C(=N\S(=O)(=O)c2ccccc2)C([n+]2ccc(Cc3ccccc3)cc2)=C([O-])c2ccccc21 system="EKVX NSCLC" measured="3.27 µM"
compound=COc1c(Cl)cc(NC(=S)C#N)cc1Cl system="EKVX NSCLC" measured="> 74 µM"
compound=CCc1cccc(C)c1NC(=O)C(=O)Cc1nc2ccccc2s1 system="EKVX NSCLC" measured="> 100 µM"
compound=C(CCCCc1nnc(N2CCCCC2)o1)CCCc1nnc(N2CCCCC2)o1 system="EKVX NSCLC" measured="> 100 µM"
compound=CS[C@]12C(=O)C[C@@]3(C)[C@@H](CC[C@]3(O)C(=O)CO)[C@@H]1CCC1=CC(=O)CC[C@@]12C system="EKVX NSCLC" measured="> 100 µM"
compound=Cc1ccc(CNc2c3ccccc3nc3cc(NC(=O)CCN4CCCC4)ccc23)cc1 system="EKVX NSCLC" measured="2.25 µM"
compound="COC(=O)C(CSSC[C@H](N/C(C)=C/C(C)=O)C(=O)OC)N/C(C)=C/C(C)=O (stereo not given in full)" system="EKVX NSCLC" measured="41.4 µM"
compound=C=C1c2[nH]c3c([N+](=O)[O-])c(OC)ccc3c2CCN1C(C)=O system="EKVX NSCLC" measured="> 100 µM"

----------
Test system: PC-3 prostate
METHOD NOTES: NCI tumour cell line growth inhibition, 48 h
# TGI per entry
QUANTITY KIND: TGI

molecule="C=C(C)C(O)C(O)c1c(OC)ccc2ccc(=O)oc12 (stereo not given)" system="PC-3 prostate" quantity_kind=TGI measured="> 100 µM"
molecule=COc1ccc(OC)c(-c2c(C#N)c(N)nc(N3CCOCC3)c2C#N)c1 system="PC-3 prostate" quantity_kind=TGI measured="> 100 µM"
molecule=CCCC(=O)NC(Nc1ccc(S(=O)(=O)Nc2nc(C)cc(C)n2)cc1)(C(F)(F)F)C(F)(F)F system="PC-3 prostate" quantity_kind=TGI measured="> 100 µM"
molecule="O=[N+]([O-])c1cccc([As]=[As]c2cccc([N+](=O)[O-])c2)c1 (stereo not given)" system="PC-3 prostate" quantity_kind=TGI measured="0.297 µM"
molecule="CC1CC/C(=C\\c2ccc(Cl)cc2)C2OC(N)=C(C#N)C(c3ccc(Cl)cc3)=C12 (stereo not given)" system="PC-3 prostate" quantity_kind=TGI measured="28.4 µM"

----------
Tested on: T-47D breast
METHOD NOTES: NCI tumour cell line growth inhibition, 48 h
QUANTITY KIND: TGI

compound=CC(C)C(OC(=O)c1ccc(NCc2cc(O)ccc2O)cc1)C(C)C measured="3.4 µM"
compound=CC1(C)CC(=O)c2c(nc3ccc4ccccc4c3c2-c2ccc(NC(=O)CCCCCCCCC(=O)Nc3ccc(-c4c5c(nc6ccc7ccccc7c46)CC(C)(C)CC5=O)cc3)cc2)C1 measured="> 100 µM"
compound=CCOC(=O)c1nc2ccc(C(F)(F)F)cc2nc1Oc1cc(OC)cc(OC)c1 measured="> 100 µM"
compound=CCc1ccc(NC(=O)COC(=O)c2cc([N+](=O)[O-])ccc2Sc2nnnn2C)cc1 measured="82.4 µM"
compound=CC(C)(O)CC(=O)NCCn1ccc2ncnc(Nc3ccc(Oc4cccc(C(F)(F)F)c4)c(Cl)c3)c21 measured="> 10 µM"
compound="O=C1c2c(O)cccc2C(C2OC(CO)C(O)C(O)C2O)c2cc(CO)cc(O)c21 (centres undefined)" measured="> 100 µM"
compound=CCNC(=O)c1cc(/C=C/c2ccc([N+](=O)[O-])o2)nc2ccccc12 measured="> 100 µM"
compound="CN(C)c1ccc2c(c1)OC(N)=C(C#N)C2c1ccc2c(c1)CCO2 (centres undefined)" measured="56.4 µM"
compound="Nc1nc(Nc2ccc(C3CCC(N4CCOCC4)CC3)cc2)nn1-c1ccccn1 (centres undefined)" measured="> 100 µM"
compound=O=C1c2ccccc2-c2c1c1ccccc1c(=O)n2CCN1CCOCC1 measured="> 100 µM"
compound=O=C(Nc1nc2ccccc2s1)c1cc([N+](=O)[O-])ccc1Cl measured="> 100 µM"
compound=CC1(C)[C@H]2CC[C@]1(C)[C@H](OC(=O)NNC(=O)O[C@@H]1C[C@@H]3CC[C@@]1(C)C3(C)C)C2 measured="23 µM"
compound=CN(C)c1nc2oc(-c3ccccc3)c(-c3ccccc3)c2c2nnnn12 measured="> 100 µM"
compound=CS[C@]12C(=O)C[C@@]3(C)[C@@H](CC[C@]3(O)C(=O)CO)[C@@H]1CCC1=CC(=O)CC[C@@]12C measured="> 100 µM"
compound=COc1cc(C(=O)NC2CCN(C)CC2)c(F)cc1Nc1ncc2c(n1)N(C1CCCC1)CC(F)(F)C(=O)N2C measured="13 µM"
compound="Nc1ccccc1CC(O)C(=O)O (centres undefined)" measured="> 100 µM"
compound=O=C(NN1C(=O)CSC12CCCC2)c1[nH]c2ccc(Br)cc2c1-c1ccccc1 measured="> 100 µM"
compound=O=C1/C(=N\S(=O)(=O)c2ccccc2)C([n+]2ccc(Cc3ccccc3)cc2)=C([O-])c2ccccc21 measured="13 µM"
compound="CCCCCCCCCCCCCCCCCCNc1ccn(C2OC(COP(=O)(O)OCC3OC(n4cc(F)c(NCCCCCCCCCCCCCCCCCC)nc4=O)CC3O)C(O)C2O)c(=O)n1 (centres undefined)" measured="> 100 µM"

----------
# TGI per entry
Tested on: MCF7 breast
METHOD NOTES: NCI tumour cell line growth inhibition, 48 h
QUANTITY KIND: TGI

compound=O=c1[nH]nc(-c2ccccc2)n1/N=C/c1cccnc1 system="MCF7 breast" measured="> 100 µM"
compound="C=C1C(=O)OC2C1C(OC(=O)/C(C)=C/C)CC(O)(CCl)C1C(O)C3OC3(C)C21O (centres undefined)" system="MCF7 breast" measured="> 50 µM"
compound=COc1ccc2c(c1)C(=O)c1c-2c(N(C)C)nc2ccccc12 system="MCF7 breast" measured="> 100 µM"
compound=Cc1c(NC(=O)CSC(=S)N2CCN(Cc3ccccc3)CC2)c(=O)n(-c2ccccc2)n1C system="MCF7 breast" measured="> 100 µM"

----------
System: ACHN renal
METHOD NOTES: NCI tumour cell line growth inhibition, 48 h; in the data active means GI50 below about 0.43 µM; inactive means the rest
Outcome codes: active, inactive

compound="C[CH2][Sn]([CH2]C)([O]C(=O)C(OC(C)=O)c1ccccc1)[O]C(=O)C(OC(C)=O)c1ccccc1 (stereo not given)" class=inactive
compound=COc1ccc(/C=C\c2cc(OC)c(OC)c(OC)c2)cc1OC class=inactive
compound="Cn1cc(C2=C(c3cccc(OCC(O)CO)c3)C(=O)NC2=O)c2ccccc21 (stereo not given)" class=inactive
compound=COc1cc(C(=O)NC2CCN(C)CC2)c(F)cc1Nc1ncc2c(n1)N(C1CCCC1)CC(F)(F)C(=O)N2C class=active
compound=CCc1ccc(NC(=O)COC(=O)c2cc([N+](=O)[O-])ccc2Sc2nnnn2C)cc1 class=inactive

----------
Test system: NCI/ADR-RES ovarian
METHOD NOTES: NCI tumour cell line growth inhibition, 48 h
QUANTITY KIND: log10(TGI) (log10 of the value in µM)

molecule=O=c1oc2ccccc2cc1-c1cn2cc(Cl)ccc2n1 quantity_kind=log10(TGI) measured=0.44
molecule=CCc1ccc(NC(=O)COC(=O)c2cc([N+](=O)[O-])ccc2Sc2nnnn2C)cc1 quantity_kind=log10(TGI) measured=1.67
molecule=S=C1SCN(Cc2ccco2)CN1c1ccc(Br)cc1 quantity_kind=log10(TGI) measured=1.89
molecule=COC(=O)c1cc2ccc(OC(C)=O)c(OC(C)=O)c2cn1 quantity_kind=log10(TGI) measured=1.85
molecule="CCOc1cc(C2CC(c3ccc(NS(=O)(=O)c4cc([N+](=O)[O-])ccc4C)cc3)=NN2c2ccc([N+](=O)[O-])cc2[N+](=O)[O-])ccc1O (stereo not drawn)" quantity_kind=log10(TGI) measured=1.80
molecule=COc1ccc(-c2c(C#N)c(S)n(NS(=O)(=O)c3ccc(C)cc3)c(=O)c2C#N)cc1 quantity_kind=log10(TGI) measured=1.77
molecule=O=C(Nc1cccc(NC(=O)Nc2cc(C(F)(F)F)ccc2Cl)c1)Nc1cc(C(F)(F)F)ccc1Cl quantity_kind=log10(TGI) measured=1.25
molecule=COc1ccc(/C=C2\S/C(=N/Nc3nc(-c4ccccc4)cs3)NC2=O)cc1OC quantity_kind=log10(TGI) measured=1.70

----------
System: NCI-H460 lung
METHOD NOTES: NCI tumour cell line growth inhibition, 48 h
QUANTITY KIND: TGI

compound=O=C(NC[C@H](O)CO)c1ccncc1Nc1ccc(I)cc1F system="NCI-H460 lung" measured="> 100 µM"
compound="Cc1ccc(N2C(=O)C3C=CC(n4[nH]c(=O)n(Cc5ccccc5)c4=O)CC3C2=O)cc1 (stereo not given)" system="NCI-H460 lung" measured="> 100 µM"
compound=CC1(c2ccc[n+](Cc3ccccc3)c2)OCCO1 system="NCI-H460 lung" measured="> 100 µM"
compound=CC1(C)CC(C)(C)C1=NNC(N)=O system="NCI-H460 lung" measured="> 100 µM"
compound=O=C1c2ccccc2-c2c1c1ccccc1c(=O)n2CCN1CCOCC1 system="NCI-H460 lung" measured="> 100 µM"
compound="O=C1c2cc3c(cc2CC12Cc1ccc4c(c1C2=O)CCCC4)CCCC3 (stereo not given)" system="NCI-H460 lung" measured="> 100 µM"
compound="COc1ccc(C(SC2C(O)C(CO)OC2n2ccc(N)nc2=O)(c2ccccc2)c2ccc(OC)cc2)cc1 (stereo not given)" system="NCI-H460 lung" measured="27.2 µM"
compound=COc1cc(/C=C2\Sc3scc(-c4cccc([N+](=O)[O-])c4)[n+]3C2=O)cc(OC)c1OC system="NCI-H460 lung" measured="24.2 µM"
compound=NCCCN(CCCN)CCN(CCN(CCCN)CCCN)CCN(CCCN)CCCN system="NCI-H460 lung" measured="> 100 µM"
compound=O=C(COc1ccc(/C=C2\Oc3ccccc3C2=O)cc1)Nc1nc2c(s1)CCCC2 system="NCI-H460 lung" measured="> 100 µM"
